biological target: 5-LO (Rattus norvegicus, UniProt P12527); construct: The activities of these enzymes in extracts of RBL-1 cells were assayed; host or cells: RBL-1 cells, disrupted by nitrogen cavitation; 10,000 x g or 100,000 x g supernatant; assay: di-HETE production by RBL-1 high speed supernatant; format: biochemical; conditions: Table 9A; di-HETE production by RBL-1 high speed supernatant; read-out: 5-LO IC50
Sequence (P12527 whole entry): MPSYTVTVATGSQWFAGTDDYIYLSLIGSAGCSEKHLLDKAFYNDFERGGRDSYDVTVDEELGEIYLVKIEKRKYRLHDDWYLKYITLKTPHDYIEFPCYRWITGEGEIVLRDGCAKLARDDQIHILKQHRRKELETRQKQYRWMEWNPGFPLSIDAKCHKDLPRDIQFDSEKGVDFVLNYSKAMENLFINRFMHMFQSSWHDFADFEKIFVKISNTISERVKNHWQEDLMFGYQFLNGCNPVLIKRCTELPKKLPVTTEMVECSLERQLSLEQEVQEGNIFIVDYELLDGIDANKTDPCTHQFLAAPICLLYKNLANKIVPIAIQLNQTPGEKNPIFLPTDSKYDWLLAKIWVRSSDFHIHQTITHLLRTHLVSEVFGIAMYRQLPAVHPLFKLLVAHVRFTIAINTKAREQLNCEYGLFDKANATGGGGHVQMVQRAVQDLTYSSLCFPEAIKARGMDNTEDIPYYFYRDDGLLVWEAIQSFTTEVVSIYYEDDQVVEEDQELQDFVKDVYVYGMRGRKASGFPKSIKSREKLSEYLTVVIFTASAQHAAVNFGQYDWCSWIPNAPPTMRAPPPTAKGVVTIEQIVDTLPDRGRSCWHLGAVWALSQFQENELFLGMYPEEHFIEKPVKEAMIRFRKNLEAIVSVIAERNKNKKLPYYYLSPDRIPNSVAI
Ranges used to classify IC50: low bin (below 3 µM), mid bin (3 µM to below 20 µM), high bin (20 µM or more)

Sample answers from the record:
compound	answer label
Fc1ccc(-c2nc3n(c2-c2ccc(F)cc2)CCS3)cc1	mid bin
CCCNc1ccc(-c2nc3n(c2-c2ccncc2)CCS3)cc1	mid bin
CN(C)c1ccc(-c2nc3n(c2-c2ccc(F)cc2)CCS3)cc1	low bin
COc1ccc(-c2nc3n(c2-c2ccc(OC)cc2)CCS3)cc1	low bin
COc1ccc(-c2nc3n(c2-c2ccncc2)CCC3)cc1	mid bin

Please classify: "c1cc(N2CCCCC2)ccc1-c1nc2n(c1-c1ccc(N3CCCCC3)cc1)CCS2"
low bin

Into which bin does this compound go? "COc1ccc(-c2nc3n(c2-c2ccc(F)cc2)CCS3)cc1"
low bin

The entry to classify is "Fc1ccc(-c2nc3n(c2-c2ccc(F)cc2)CCC3)cc1" ; which class holds it?
mid bin

Field: class (IC50) — entry: "CSc1ccc(-c2nc3n(c2-c2ccc(SC)cc2)CCS3)cc1"
high bin

Category of "COc1ccc(-c2nc3n(c2-c2ccc(OC)cc2)CCCS3)cc1" :
mid bin

Note: place this compound into its band. Item: "O=S1(=O)CCn2c1nc(-c1ccc(F)cc1)c2-c1ccncc1"
high bin

Determine which band this compound sits in: [O-][S+]1CCn2c1nc(-c1ccncc1)c2-c1ccc(F)cc1 (stereo not drawn)
high bin

Kindly state the category for this compound: "Nc1ccc(-c2nc3n(c2-c2ccc(N)cc2)CCS3)cc1"
mid bin

Sort "c1cc(N2CCCC2)ccc1-c1nc2n(c1-c1ccc(N3CCCC3)cc1)CCS2" into one of the categories.
low bin

Kindly identify the class of "Fc1ccc(-c2nc3n(c2-c2ccccn2)CCS3)cc1" .
high bin

For this compound, which bin applies? [O-][S+]1CCn2c1nc(-c1ccc(F)cc1)c2-c1ccc(F)cc1 (stereo not drawn)
high bin

Which bin should I file "c1cc(-c2c(-c3ccc4c(c3)OCO4)nc3n2CCS3)ccn1" under?
mid bin

Which bin, given its IC50, does "CCN(CC)c1ccc(-c2nc3n(c2-c2ccc(N(CC)CC)cc2)CCS3)cc1" occupy?
low bin

Form: Item = "Fc1ccc(-c2c(-c3ccncc3)nc3n2CCS3)cc1" ; Class = ?
mid bin

State the band of "c1cc(-c2c(-c3ccc(N4CCCC4)cc3)nc3n2CCS3)ccn1"
low bin

Just checking, what class would you give "c1cc2c(cc1-c1nc3n(c1-c1ccc4c(c1)OCO4)CCS3)OCO2" here?
low bin

Bin? [O-][S+]1CCn2c1nc(-c1ccc(F)cc1)c2-c1ccncc1 (stereo not drawn)
high bin

====

molecular target: 5-LO (Rattus norvegicus, UniProt P12527); construct: The activities of these enzymes in extracts of RBL-1 cells were assayed; host or cells: RBL-1 cells, disrupted by nitrogen cavitation; 10,000 x g or 100,000 x g supernatant; assay: di-HETE production by RBL-1 high speed supernatant; format: biochemical; conditions: Table 9A; di-HETE production by RBL-1 high speed supernatant; read-out: 5-LO IC50
property: log10 of IC50 (log10 of the value in µM)
Please note: log10 values; quantity IC50; unit µM.

Solved entries:
Fc1ccc(-c2c(-c3ccccn3)nc3n2CCS3)cc1 1.30
COc1ccc(-c2nc3n(c2-c2ccc(OC)cc2)CCS3(=O)=O)cc1 1.00
CCOC(=O)N1C=CC(c2c(-c3ccc(F)cc3)nc3n2CCS3)C=C1 0.85
N#Cc1ccc(-c2nc3n(c2-c2ccc(C#N)cc2)CCS3)cc1 1.18
Fc1ccc(-c2nc3n(c2-c2ccncc2)CCC3)cc1 1.51
O=C(c1ccccc1)N1C=CC(c2c(-c3ccc(F)cc3)nc3n2CCS3)C=C1 1.72
c1cc(-c2nc3n(c2-c2ccncc2)CCS3)ccn1 1.52
FC(F)(F)c1ccc(-c2nc3n(c2-c2ccc(C(F)(F)F)cc2)CCS3)cc1 1.00
CCNc1ccc(-c2nc3n(c2-c2ccc(NCC)cc2)CCS3)cc1 -1.00
CN(C)c1ccc(-c2c(-c3ccc(F)cc3)nc3n2CCS3)cc1 0.18

Read the entry "CC(=O)Nc1ccc(-c2nc3n(c2-c2ccncc2)CCS3)cc1" and write its reported log10 of IC50.
1.48

Note log10 of IC50 for the molecule shown: "COc1ccc(-c2nc3n(c2-c2ccncc2)CCS3)cc1"
0.28

Please indicate log10 of IC50 recorded for "c1cc(-c2nc3n(c2-c2ccc4c(c2)OCO4)CCS3)ccn1"
1.00
